Values from patent US9062030B2

Target: human S1P1 receptor (Homo sapiens, UniProt P21453)
Construct: expressed in transfected cells; membranes used
Sequence (P21453 whole entry): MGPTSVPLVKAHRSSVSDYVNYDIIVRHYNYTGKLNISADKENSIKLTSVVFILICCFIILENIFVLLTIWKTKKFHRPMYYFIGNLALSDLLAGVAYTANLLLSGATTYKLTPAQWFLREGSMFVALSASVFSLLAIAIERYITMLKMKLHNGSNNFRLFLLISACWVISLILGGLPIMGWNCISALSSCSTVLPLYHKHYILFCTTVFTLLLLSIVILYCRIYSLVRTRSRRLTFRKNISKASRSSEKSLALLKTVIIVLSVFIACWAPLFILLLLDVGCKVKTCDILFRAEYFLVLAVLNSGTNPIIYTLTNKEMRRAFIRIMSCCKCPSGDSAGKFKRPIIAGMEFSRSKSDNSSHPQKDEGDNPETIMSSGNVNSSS
Assay: GTP γ35S binding assay for S1P1 activity
Type: biochemical
Conditions: membranes of cells stably expressing the S1P1 receptor, agonist activity potency
pEC50: −log10 of the molar value.
Attribute Measured: pEC50

[[record]]
compound = "Cc1nn(C(=O)CCc2ccc(CN3CC(C(=O)O)C3)cc2)c2c1C1C(C2)C1(C)C (stereo not shown)"
attribute_measured = "pEC50"
test_value = 6.35

